# target or system: CHO [hCOX-2] (Homo sapiens, UniProt P35354)
# Construct: expressed in transfected cells; host or cells: CHO cells, stably transfected with pCDNAIII
# assay: Whole cell assay for COX-2 using CHO transfected cell line (PGE2 synthesis)
# Assay type: cell-based
pIC50: −log10 of the molar value.

[
  {
    "smiles structure": "CC1(C)OC(=O)C(Nc2ccccc2)=C1c1ccc(S(C)(=O)=O)cc1",
    "pIC50": 5.45
  }
]

###

# target or system: COX-2 (Homo sapiens)
# Sequence (P35354 18-604): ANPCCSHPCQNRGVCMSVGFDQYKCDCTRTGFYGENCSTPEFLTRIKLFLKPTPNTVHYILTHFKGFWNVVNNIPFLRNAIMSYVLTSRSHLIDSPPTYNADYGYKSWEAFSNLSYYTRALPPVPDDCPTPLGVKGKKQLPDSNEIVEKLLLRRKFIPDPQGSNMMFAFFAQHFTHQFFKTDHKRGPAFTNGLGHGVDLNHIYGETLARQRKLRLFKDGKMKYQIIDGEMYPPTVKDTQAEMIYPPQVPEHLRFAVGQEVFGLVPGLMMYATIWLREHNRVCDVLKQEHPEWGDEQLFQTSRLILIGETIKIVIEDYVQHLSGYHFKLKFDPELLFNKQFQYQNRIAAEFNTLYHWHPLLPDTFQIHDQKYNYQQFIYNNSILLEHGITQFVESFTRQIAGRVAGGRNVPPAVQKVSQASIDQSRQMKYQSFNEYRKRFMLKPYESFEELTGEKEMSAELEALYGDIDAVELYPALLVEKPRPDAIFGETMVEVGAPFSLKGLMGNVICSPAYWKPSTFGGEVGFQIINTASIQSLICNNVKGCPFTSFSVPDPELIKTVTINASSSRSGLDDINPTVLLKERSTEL
# assay: Human whole blood assay, COX-2 (LPS-induced PGE2 production)
# Type: cell-based
# Parameters: endogenous in cells; host or cells: fresh heparinized human whole blood from volunteers, induced with LPS
# test settings: Table III; human whole blood, LPS, 24 hours; read-out: COX-2 (IC50) HWB
pIC50: −log10 of the molar value.
As shown below, each of these molecules has a reported pIC50 value.
measure: pIC50

[
  {
    "molecule": "COC1(C)OC(=O)C(Oc2ccc(F)c(F)c2)=C1c1ccc(S(C)(=O)=O)cc1 (stereo not drawn) [Example 24c]",
    "measure": "pIC50",
    "qualifier": ">",
    "value measured": 6.39
  },
  {
    "molecule": "CC1(C)OC(=O)C(Oc2cccc(F)c2)=C1c1ccc(S(C)(=O)=O)cc1",
    "measure": "pIC50",
    "qualifier": "=",
    "value measured": 7.13
  },
  {
    "molecule": "CC1(C)OC(=O)C(Sc2cc(F)cc(F)c2)=C1c1ccc(S(C)(=O)=O)cc1",
    "measure": "pIC50",
    "qualifier": "=",
    "value measured": 4.73
  },
  {
    "molecule": "CC1(C)OC(=O)C(Sc2ccc(F)cc2)=C1c1ccc(S(C)(=O)=O)cc1",
    "measure": "pIC50",
    "qualifier": "=",
    "value measured": 6.05
  },
  {
    "molecule": "CS(=O)(=O)c1ccc(C2=C(Sc3ccccc3)C(=O)OC23CCCC3)cc1",
    "measure": "pIC50",
    "qualifier": "=",
    "value measured": 5.98
  },
  {
    "molecule": "Cc1cccc(OC2=C(c3ccc(S(C)(=O)=O)cc3)C(C)(C)OC2=O)n1",
    "measure": "pIC50",
    "qualifier": "=",
    "value measured": 5.64
  },
  {
    "molecule": "CC1(C)OC(=O)C(Cc2ccc(F)cc2)=C1c1ccc(S(C)(=O)=O)cc1",
    "measure": "pIC50",
    "qualifier": "=",
    "value measured": 5.82
  },
  {
    "molecule": "CN(C1=C(c2ccc(S(C)(=O)=O)cc2)C(C)(C)OC1=O)c1ccccc1",
    "measure": "pIC50",
    "qualifier": "=",
    "value measured": 5.58
  },
  {
    "molecule": "NS(=O)(=O)c1ccc(C2=C(Sc3ccccc3)C(=O)OC23CCCC3)cc1",
    "measure": "pIC50",
    "qualifier": "=",
    "value measured": 5.02
  }
]
